# maps each entry to its koff
- Test Target: T1, Recombinant Human BDCA2 (human, UniProt Q8WTT0 45-213, limits assumed)
- T1 construct: also called hBDCA2 (SPR analyte); human BDCA2 antigen
- T1 sequence (looked up): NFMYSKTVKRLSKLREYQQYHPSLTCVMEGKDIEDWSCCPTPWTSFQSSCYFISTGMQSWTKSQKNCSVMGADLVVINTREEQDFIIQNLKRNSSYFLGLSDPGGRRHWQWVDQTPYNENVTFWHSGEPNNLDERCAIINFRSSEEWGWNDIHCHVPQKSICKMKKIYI
- Method Summary: SPR (BIAcore), antibody captured by anti-human IgG (Fc), hBDCA2 as analyte, 1:1 model
Express the reported value numerically, then name its unit.

Quick check: koff of mab033c (antibody, V domains shown) VH: EVQMVESGGDLVKPGDSLKLSCAASGFTFRSYGMSWVRQTPDKRLEWVATISSGDSYTYYPDSVKGRFTISRDNAKNTLYLQMSSLKSEDTALYYCARQIYYDYAYYFDFWGQGTTLTVSS VL: DIVLTQSPASLAVSLGQRATISCRASESVSFRTSHLMHWYQQKPGQPPKLLIYGASNLESGVPARFSGSGSETDFTLNIHPVEEEDAAAYFCQQSIEDPPTFGGGTKLEIK ?
7.67e-05 s⁻¹

Try this binder too: Hu033-15 (antibody, IgG1, V domains shown, Humanized IgG1; also called Hu033-15(BM2)) VH: EVQLVESGGGLVKPGGSLRLSCAASGFTFRSYGMSWVRQAPGKRLEWVSTISSGDSYTYYPDSVKGRFTISRDNAKNSLYLQMNSLRAEDTAVYYCARQIYYDYAYYFDFWGQGTTVTVSS VL: EIVLTQSPATLSLSPGERATLSCRASESVSFRTSHLMHWYQQKPGQAPRLLIYGASNLESGIPARFSGSGSGTDFTLTISRLEPEDFAVYYCQQSIEDPPTFGGGTKVEIK
0.000227 s⁻¹

Try this binder too: Hu033-16 (antibody, IgG1, V domains shown, Humanized IgG1; also called Hu033-16(BM4)) VH: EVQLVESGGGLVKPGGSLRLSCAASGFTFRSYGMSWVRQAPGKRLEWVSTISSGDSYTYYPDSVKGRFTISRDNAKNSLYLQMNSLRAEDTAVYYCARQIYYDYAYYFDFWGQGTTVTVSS VL: EIVLTQSPATLSLSPGERATLSCRASESVSFRTSHLMHWYQQKPGQAPRLLIYGASNLESGIPARFSGSGSETDFTLTISRLEPEDFAVYFCQQSIEDPPTFGGGTKVEIK
0.000108 s⁻¹

Try this binder too: Hu033-08 (antibody, IgG1, V domains shown, Humanized IgG1; also called Hu033-08(BM2)) VH: EVQLVESGGGLVKPGGSLRLSCAASGFTFSSYGMSWVRQAPGKGLEWVSTISSGDSYTYYPDSVKGRFTISRDNAKNSLYLQMNSLRAEDTAVYYCARQIYYDYAYYFDFWGQGTTVTVSS VL: EIVLTQSPATLSLSPGERATLSCRASESVSFRTSHLMHWYQQKPGQAPRLLIYGASNLESGIPARFSGSGSETDFTLTISRLEPEDFAVYFCQQSIEDPPTFGGGTKVEIK
0.000169 s⁻¹

Try this binder too: Hu033-02 (antibody, IgG1, V domains shown, Humanized IgG1; also called Hu033-02(BM2)) VH: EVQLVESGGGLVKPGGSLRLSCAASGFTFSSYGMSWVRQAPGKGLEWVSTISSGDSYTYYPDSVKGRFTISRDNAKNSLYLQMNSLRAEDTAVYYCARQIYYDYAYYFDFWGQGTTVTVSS VL: DIVLTQSPASLAVSPGQRATITCRASESVSFRTSHLMHWYQQKPGQPPKLLIYGASNLESGVPARFSGSGSETDFTLTINPVEAEDTANYYCQQSIEDPPTFGGGTKVEIK
0.000169 s⁻¹
